Source: patent US20250186627A1

We begin with a simple list: items and their reported Biodistribution: Intestine.
Test system: NRG-mice bearing LNCaP tumors
assayNotes: Biodistribution (and PET/SPECT imaging) in NRG-mice bearing LNCaP tumors
Assay type: in vivo
conditionSummary: 24 h p.i., Avg
*1 amine or outer side, *2 acyl side, *3 side chain or, on linkers, in order; H or OH if unused. Where a SMILES comes first, the peptide text is derived from it. [ ]: non-standard residue; d: D form. The star is where a group is joined. ξ: configuration not given here. ξLys(Nα-CO-ξAad) = O=C(O)CCCC(NC(=O)NC(CCCCN*)C(=O)O)C(=O)O; Butanoyl(4-(4-NO2Ph)) = O=C(CCCc1ccc([N+](=O)[O-])cc1)*; DOTA = O=C(O)CN1CCN(CC(=O)O)CCN(CC(=O)*)CCN(CC(=O)O)CC1; Butanoyl(4-(4-MeO-phenyl)) = COc1ccc(CCCC(=O)*)cc1; ξAla(9-anthryl) = NC(Cc1c2ccccc2cc2ccccc12)C(=O)O; X2 = O=C(NC(CCCCN*)C(=O)O)NC(CC(F)C(=O)O)C(=O)O; X1 = O=C(C1CCC(CN[*:1])CC1)[*:2]; ξK = NCCCCC(N)C(=O)O
Kindly format the answer as number then unit.

{"columns": ["compound", "recordedEndpoint", "measuredValue"],
 "data": [
  ["O=C([O-])CN1CCN(CC(=O)[O-])CCN(CC(=O)NCCCCC(NC(=O)CNC(=O)CCCc2ccc([N+](=O)[O-])cc2)C(=O)NCC(=O)NCC2CCC(C(=O)NC(Cc3c4ccccc4cc4ccccc34)C(=O)NCCCCC(NC(=O)NC(CCCC(=O)O)C(=O)O)C(=O)O)CC2)CCN(CC(=O)[O-])CC1.[177Lu+3] (stereo not shown) [^177Lu-CCZ02017] ({Butanoyl(4-(4-NO2Ph))}-G[ξK](DOTA)G[X1][ξAla(9-anthryl)]-{ξLys(Nα-CO-ξAad)})", "Biodistribution: Intestine", "0.13 % ID/g"],
  ["O=C([O-])CN1CCN(CC(=O)[O-])CCN(CC(=O)NCCCCC(NC(=O)CNC(=O)CCCc2ccc([N+](=O)[O-])cc2)C(=O)NCC(=O)NCC2CCC(C(=O)NC(Cc3c4ccccc4cc4ccccc34)C(=O)NCCCCC(NC(=O)NC(CCCC(=O)O)C(=O)O)C(=O)O)CC2)CCN(CC(=O)[O-])CC1.[225Ac+3] (stereo not shown) [^225Ac-CCZ02017] ({Butanoyl(4-(4-NO2Ph))}-G[ξK](DOTA)G[X1][ξAla(9-anthryl)]-{ξLys(Nα-CO-ξAad)})", "Biodistribution: Intestine", "0.15 % ID/g"],
  ["COc1ccc(CCCC(=O)NCC(=O)NC(CCCCNC(=O)CN2CCN(CC(=O)[O-])CCN(CC(=O)[O-])CCN(CC(=O)[O-])CC2)CC(=O)NCC2CCC(C(=O)NC(Cc3c4ccccc4cc4ccccc34)C(=O)NCCCCC(NC(=O)NC(CC(F)C(=O)O)C(=O)O)C(=O)O)CC2)cc1.[177Lu+3] (stereo not shown) [^177Lu-CCZ02019]", "Biodistribution: Intestine", "0.23 % ID/g"]
]}

Query: Using known records, supply Biodistribution: Intestine for COc1ccc(CCCC(=O)NCC(=O)NC(CCCCNC(=O)CN2CCN(CC(=O)[O-])CCN(CC(=O)[O-])CCN(CC(=O)[O-])CC2)C(=O)NCC(=O)NCC2CCC(C(=O)NC(Cc3c4ccccc4cc4ccccc34)C(=O)NCCCCC(NC(=O)NC(CC(F)C(=O)O)C(=O)O)C(=O)O)CC2)cc1.[177Lu+3] (stereo not shown) [^177Lu-CCZ02008] ({Butanoyl(4-(4-MeO-phenyl))}-G[ξK](DOTA)G[X1][ξAla(9-anthryl)]-X2)
Response: 0.59 % ID/g
